test: MultiTox-Fluor Cytotoxicity Assay - LYMP1-003 - Dead Cells (AID 961); settings: LYMP1-003 lymphoblastoid cells, dead-cell protease fluorescence; series mostly up to 92.2 µM;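 further: cells exposed to compound for 16 h at 37 °C; nearly all actives have a fitted effect of over 70% in size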
The source made the active and inactive calls. The call rests on the fitted dose curve; in most records, active means well fitted cell-killing curve with a large enough effect; inconclusive means small, poorly fitted or top-dose-only effect, or effect the other way; inactive means flat fitted curve, though single readings scatter.
Just give me one of these, please: yes = active, no = inactive

QUERY: In this assay, the call recorded for `CC(=O)O[C@]1(C(C)=O)CC[C@H]2[C@@H]3C[C@H](C)C4=CC(=O)CC[C@]4(C)[C@H]3CC[C@@]21C` was what?
RESULT: no

QUERY: Please give the result for `C=C(CC)C(=O)c1ccc(OCC(=O)O)c(Cl)c1Cl` too.
RESULT: yes

QUERY: What do you get for `CC(=O)Oc1ccc(C(c2ccc(OC(C)=O)cc2)c2ccccn2)cc1` ?
RESULT: no

###

assay: qHTS Assay for Identifying Gametocytocidal Compounds (AID 743244); further: potency means the concentration at half of the fitted maximal effect; details: P. falciparum 3D7 stage III-V gametocytes, alamarBlue, 72 h
Records with an inconclusive call do not appear. Activity calls are given as the source filed them. The call rests on the fitted dose curve; in most records, active means well fitted curve in the direction sought with a large enough effect; inconclusive means small, poorly fitted or top-dose-only effect, or another doubt; inactive means no such curve, though single readings can be large or run the other way.
measurementType: Potency

CC1(C)O[C@@H]2C[C@H]3[C@@H]4CCC5=CC(=O)CC[C@]5(C)[C@@]4(F)[C@@H](O)C[C@]3(C)[C@]2(C(=O)CCl)O1: 8.91 µM (active)

Hi, could you look up Potency for each item in my list?
1. CN1CCC(=C2c3ccccc3Sc3ccccc32)CC1
2. CCCCCCCCCCCCCCCC[N+](C)(C)CC

RESULT:
["15.8 µM (active)", "14.1 µM (active)"]

State the recorded Potency for every item in the following list.
1. NC(=NCCCCCCN=C(N)/N=C(\N)Nc1ccc(Cl)cc1)/N=C(\N)Nc1ccc(Cl)cc1
2. O=c1c(-c2ccccc2)c1-c1ccccc1
3. Oc1c(I)cc(I)c2cccnc12
4. CCCCCCC[N+](CC)(CC)CCCCc1ccc(Cl)cc1
5. COc1cccc(CCc2ccccc2OCC(CN(C)C)OC(=O)CCC(=O)O)c1 (stereo not drawn)
6. C[n+]1c2cc(N)ccc2cc2ccc(N)cc21 (tested in a mixture with another compound)
7. COc1cc(NS(C)(=O)=O)ccc1Nc1c2ccccc2nc2ccccc12

RESULT:
["7.08 µM (active)", "3.98 µM (active)", "8.91 µM (active)", "3.55 µM (active)", "3.72 µM (active)", "7.94 µM (active)", "6.31 µM (active)"]

Hi there! I need Potency for each item below, if you can.
1. CCCCCCCCCCCCCCCC[N+](C)(C)CCN(Cc1ccc(OC)cc1)c1ncccn1
2. CC(=O)N/N=C/c1ccc([N+](=O)[O-])o1
3. NC(=O)C(=O)N/N=C/c1ccc([N+](=O)[O-])o1

RESULT:
["7.08 µM (active)", "31.6 µM (active)", "17.8 µM (active)"]

###

tested on: 7G8; assay: qHTS profiling for inhibitors of Plasmodium falciparum proliferation (AID 504749); further: nearly all actives have a fitted effect of over 60% in size; conditions: P. falciparum in erythrocytes, SYBR Green DNA, 72 h; series mostly up to 28.7 µM
Inconclusive results are not listed. The source made the active and inactive calls. Calls follow the shape of the dose curve; as a rule, active = well fitted inhibition curve with a large enough effect; inconclusive = small, poorly fitted or top-dose-only effect; inactive = flat fitted curve, though single readings scatter.
Permitted responses: class 1 for active, class 0 for inactive

C#C[C@]1(OC(C)=O)CC[C@H]2[C@@H]3CCC4=C[C@@H](OC(C)=O)CC[C@@H]4[C@H]3CC[C@@]21C: class 0
CCC(=O)c1c(O)cc(O)cc1O: class 0
N[C@H](CO)C(=O)O: class 0
Oc1ccc(Cl)cc1Sc1cc(Cl)ccc1O: class 1

QUERY: Check the results log: what was the call for `CN1CCC[C@@H]1c1cccnc1` ?
RESULT: class 0

QUERY: Then `CCOC(=O)n1ccn(C)c1=S` ?
RESULT: class 0

QUERY: Repeat with `O=C(O)CNC(=O)c1ccccc1`
RESULT: class 0

QUERY: Request: `O=c1c(-c2ccccc2)c1-c1ccccc1`
RESULT: class 1

QUERY: Also need `COc1cccc2c1C(=O)c1c(O)c3c(c(O)c1C2=O)C[C@@](O)(C(C)=O)C[C@@H]3O[C@H]1C[C@H](N)[C@H](O)[C@H](C)O1` , thanks.
RESULT: class 1

###

target: Mitogen-activated protein kinase 10 (Mus musculus); test: JNK3 AlphaScreen Assay (AID 530); details: JNK3 lysate, c-Jun phosphorylation; series mostly up to 25.6 µM;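 further: kinase came from lysate of stimulated human HepG2 cells; signal reports phosphorylation of biotinylated GST-cJun 1-79 at Ser73 with 10 µM ATP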
Records with an inconclusive call do not appear. Active and inactive are the calls of the source. Calls follow the shape of the dose curve; as a rule, active = well fitted curve in either direction with a large enough effect (not every such curve was filed as active); inconclusive = small, poorly fitted or top-dose-only effect, or another doubt; inactive = flat fitted curve, though single readings scatter. Numbered stars: 1 amine (or outer) side, 2 acyl side, 3 side chain; on linkers, the order of the positions; unused ones are H or OH. Bridge positions count the residues as written; N and C are the ends. Square brackets hold non-standard residues; d marks the D form. Peptide text beside a SMILES is read from it. I, II: the chains in the order shown. Actinocin(9to1) = Cc1c2oc3c(C)ccc(C(=O)[*:1])c3nc-2c(C(=O)[*:2])c(N)c1=O; NMeV = CN[C@H](C(=O)O)C(C)C; Sar = CNCC(=O)O
measurementType: outcome

C[C@H]1[C@H](NC(=O)/C(=N/OC(C)(C)C(=O)O)c2csc(N)n2)C(=O)N1S(=O)(=O)O (stereo in doubt): inactive
Cc1c(N(C)CS(=O)(=O)O)c(=O)n(-c2ccccc2)n1C: inactive
Oc1ccc(Cl)cc1Sc1cc(Cl)ccc1O: inactive
OC(CCN1CCCCC1)(c1ccccc1)c1ccccc1: inactive
O=C(O)c1cc2cc(Cc3cccnc3)ccc2o1: inactive

Look at each molecule and report its outcome.
1. CCCCOc1ccc(C(=O)CCN2CCCCC2)cc1
2. Cc1cccc(C)c1NC(=O)CN1CCN(CCCC(c2ccc(F)cc2)c2ccc(F)cc2)CC1

RESULT:
["inactive", "inactive"]

The following molecules each have a reported value; give each one's outcome.
1. CN1CCC(=C2c3ccccc3Sc3ccccc32)CC1
2. CCCCCCC[N+](CC)(CC)CCCCc1ccc(Cl)cc1
3. C[C@H](O)C(=O)Nc1c(I)c(C(=O)NC(CO)CO)c(I)c(C(=O)NC(CO)CO)c1I
4. CC(C)(Oc1ccc(Cl)cc1)C(=O)O
5. Cc1c2oc3c(C)ccc(C(=O)N[C@@H]4C(=O)N[C@H](C(C)C)C(=O)N5CCC[C@H]5C(=O)N(C)CC(=O)N(C)[C@@H](C(C)C)C(=O)O[C@@H]4C)c3nc-2c(C(=O)N[C@@H]2C(=O)N[C@H](C(C)C)C(=O)N3CCC[C@H]3C(=O)N(C)CC(=O)N(C)[C@@H](C(C)C)C(=O)O[C@@H]2C)c(N)c1=O (I: T[dV]P[Sar][NMeV] / II: T[dV]P[Sar][NMeV]; ester I:1-I:C, II:1-II:C; linker I:N-II:N via Actinocin(9to1))
6. CCCCOc1ccc(OCCCN2CCOCC2)cc1

RESULT:
1: inactive; 2: inactive; 3: inactive; 4: inactive; 5: inactive; 6: inactive

Provide reported outcome for each item, in the same order as listed.
1. O=C(OCCOCCO)c1ccccc1Nc1cccc(C(F)(F)F)c1
2. CC[N+](CC)(CCNC(=O)C(=O)NCC[N+](CC)(CC)Cc1ccccc1Cl)Cc1ccccc1Cl
3. Cc1cc(=O)n(-c2ccccc2)n1C

RESULT:
["inactive", "inactive", "inactive"]

// for each molecule below, give its outcome
1. CCCCCCCCCCCCCCCC[N+](C)(C)CCN(Cc1ccc(OC)cc1)c1ncccn1
2. CCOC(=O)n1ccn(C)c1=S
3. O=C1CCC(c2ccc(-n3ccnc3)cc2)=NN1
4. NC(=NCCCCCCN=C(N)/N=C(\N)Nc1ccc(Cl)cc1)/N=C(\N)Nc1ccc(Cl)cc1
5. O=C1c2ccccc2C(=O)C1c1ccccc1
6. C[C@@H]1CN(CCCn2c3ccccc3c3ccccc32)C[C@H](C)N1
7. Oc1c(Cl)cc(Cl)cc1Sc1cc(Cl)cc(Cl)c1O
8. CC(C)COC(=O)OCN1C(=O)CN(CCN2CC(=O)N(COC(=O)OCC(C)C)C(=O)C2)CC1=O

RESULT:
inactive
inactive
inactive
inactive
inactive
inactive
inactive
inactive

Record outcome for all entries; do not skip any.
1. CCN(CCCc1ccccc1)CCCc1ccccc1
2. COc1c(C)c2c(c(O)c1C/C=C(\C)CCC(=O)O)C(=O)OC2
3. CC(=O)c1ccc2c(c1)N(CCCN1CCC(CCO)CC1)c1ccccc1S2
4. O=C(O)CCCCC(=O)O

RESULT:
["inactive", "inactive", "inactive", "inactive"]

I would be grateful if you could provide outcome for each of the following entries.
1. CN1CCN(C(c2ccccc2)c2ccccc2)CC1
2. CC(=O)Oc1ccc(C(c2ccc(OC(C)=O)cc2)c2ccccn2)cc1
3. Oc1cc(O)c2c(c1)O[C@H](c1ccc(O)c(O)c1)[C@H](O)C2
4. Nc1ccc(C(=O)O)cc1

RESULT:
1: inactive; 2: inactive; 3: inactive; 4: inactive

Your task in this section: give outcome for each listed record.
1. NCCCC[C@H](N[C@@H](CCc1ccccc1)C(=O)O)C(=O)N1CCC[C@H]1C(=O)O
2. CC(C)(C)CC(C)(C)c1ccc(OCCOCC[N+](C)(C)Cc2ccccc2)cc1
3. C=C(CC)C(=O)c1ccc(OCC(=O)O)c(Cl)c1Cl
4. CCN1CCC[C@H]1CNC(=O)c1c(OC)ccc(Br)c1OC

RESULT:
inactive
inactive
inactive
inactive
